Assay: Time-course decomposition of pesticides reacted with the composition prepared in Example 1 (HPLC)
Format: physicochemical
Details: 7.5 mL of 10 ppm pesticide + 2.5 mL composition of Example 1; after 5.0 min reaction time
observation_type: pesticide decomposed (%)
Dear colleague, please return just the value in %, with no unit written.

Find the recorded pesticide decomposed belonging to `CCOP(=S)(OCC)SCSC(C)(C)C` and report it.
91

Find the recorded pesticide decomposed belonging to `CCOP(=S)(OCC)Oc1cc(C)nc(C(C)C)n1` and report it.
87

Find the recorded pesticide decomposed belonging to CCC(C)c1ccccc1OC(=O)NC (stereo not shown) and report it.
76

Find the recorded pesticide decomposed belonging to CCCCC(O)(Cn1cncn1)c1ccc(Cl)cc1Cl (stereo not shown) and report it.
85
